Reference for the values: patent US20230277612A1

Test: Critical micellar concentration (CMC) by ANS fluorescence
Type: physicochemical
Settings: Table A7; determined in PBS
CMC values by entry
Your answer should be a plain number; it is taken to be in µM.

Request: Quick check: CMC of CC(=O)OC1C(C)OC(OC2C(C)OC(OC(=O)[C@]34CCC(C)(C)CC3C3=CCC5[C@@]6(C)CC[C@H](OC7OC(C(=O)O)C(O)C(OC8OCC(O)C(O)C8O)C7OC7OC(CO)C(O)C(O)C7O)[C@@](C)(C=O)C6CC[C@@]5(C)[C@]3(C)C[C@H]4O)C(OC3OC(C)C(OC4OCC(O)C(OC5OC(CO)C(O)C(O)C5O)C4O)C(O)C3O)C2O)C(O)C1OC1OCC(O)C(O)C1O (some centres unmarked) [SO1861, reference compound] ?
Response: 185

Request: Quick check: CMC of CC(=O)OC1C(C)OC(OC2C(C)OC(OC(=O)[C@]34CCC(C)(C)CC3C3=CCC5[C@@]6(C)CC[C@H](OC7OC(C(=O)NC(C)(CO)CO)C(O)C(OC8OCC(O)C(O)C8O)C7OC7OC(CO)C(O)C(O)C7O)[C@@](C)(C=O)C6CC[C@@]5(C)[C@]3(C)C[C@H]4O)C(OC3OC(C)C(OC4OCC(O)C(OC5OC(CO)C(O)C(O)C5O)C4O)C(O)C3O)C2O)C(O)C1OC1OC(C)C(O)C(O)C1O (some centres unmarked) ?
Response: 50

Request: Quick check: CMC of CC1OC(OC2C(C)OC(OC(=O)[C@]34CCC(C)(C)CC3C3=CCC5[C@@]6(C)CC[C@H](OC7OC(C(=O)NCCN8C(=O)C=CC8=O)C(O)C(OC8OCC(O)C(O)C8O)C7OC7OC(CO)C(O)C(O)C7O)[C@@](C)(C=O)C6CC[C@@]5(C)[C@]3(C)C[C@H]4O)C(OC3OC(C)C(OC4OCC(O)C(OC5OC(CO)C(O)C(O)C5O)C4O)C(O)C3O)C2O)C(O)C(OC2OCC(O)C(O)C2O)C1O (some centres unmarked) ?
Response: 90

Request: Quick check: CMC of CC(=O)OC1C(C)OC(OC2C(C)OC(OC(=O)[C@]34CCC(C)(C)CC3C3=CCC5[C@@]6(C)CC[C@H](OC7OC(C(=O)NC(C)(CO)CO)C(O)C(OC8OCC(O)C(O)C8O)C7OC7OC(CO)C(O)C(O)C7O)[C@@](C)(CO)C6CC[C@@]5(C)[C@]3(C)C[C@H]4O)C(OC3OC(C)C(OC4OCC(O)C(OC5OC(CO)C(O)C(O)C5O)C4O)C(O)C3O)C2O)C(O)C1OC1OCC(O)C(O)C1O (some centres unmarked) ?
Response: 50
